The following binders are listed with their measured % Binding values.
# tested system: EphB6 (receptor of Table 1)
# experiment summary: EphB receptor specificity panel (% binding)
measured attribute: % Binding (%)

• EWYMKFPPEHYF (Panned on EphB4) [EWYMKFPPEHYF peptide (SEQ ID NO:19)] = 30
• GPVHRAWEPTSH (Panned on EphB4) [GPVHRAWEPTSH peptide (SEQ ID NO:29)] = 7
• THWCHLLNCAAL (Panned on EphB2) [THWCHLLNCAAL peptide (SEQ ID NO:6)] = 26
• SHWPISPYSLLS (Panned on EphB2) [SHWPISPYSLLS peptide (SEQ ID NO:14)] = 8
• DHNHNLYNPWRL (Panned on EphB4) [DHNHNLYNPWRL peptide (SEQ ID NO:21)] = 7
• EFFTWRPTYYGI (Panned on EphB4) [EFFTWRPTYYGI peptide (SEQ ID NO:23)] = 17
• LPHGPVAAAWDA (Panned on EphB4) [LPHGPVAAAWDA peptide (SEQ ID NO:26)] = 4
• SHVGPIMRAWAP (Panned on EphB4) [SHVGPIMRAWAP peptide (SEQ ID NO:28)] = 6

Where do these numbers come from? They come from patent US20100150834A1.
